Property: MIC; scope: individual molecules
# System: non-replicating cultures of M. tuberculosis H37Rv transformed with lux ABCDE
# assay-protocol: microbe, parasite or virus in culture
# Type: cell-based, Mycobacterium tuberculosis
# setup-conditions: Mycobacterium tuberculosis, H37RV; […]; ≥90% reduction in luminescence; read-out: MIC90 LORA
measured-endpoint: MIC (µM)

molecule: CO[C@H]1/C=C/O[C@@]2(C)Oc3c(C)c(O)c4c(=O)c(c5oc6cc(N7CCN(C(=O)C(C)(C)C)CC7)cc(OCc7ccc(CN8CCOCC8)cc7)c6nc-5c4c3C2=O)NC(=O)/C(C)=C\C=C\[C@H](C)[C@H](O)[C@@H](C)[C@@H](O)[C@@H](C)[C@H](OC(C)=O)[C@@H]1C [Compound 17f]
result-unit: µM
lt-gt-eq: =
assay-result: 0.369

molecule: CO[C@H]1/C=C/O[C@@]2(C)Oc3c(C)c(O)c4c(=O)c(c5oc6cc(N7CCN(CC(C)C)CC7)cc(OCCCCN7CCN(CCn8ccnc8)CC7)c6nc-5c4c3C2=O)NC(=O)/C(C)=C\C=C\[C@H](C)[C@H](O)[C@@H](C)[C@@H](O)[C@@H](C)[C@H](OC(C)=O)[C@@H]1C [Compound 6b]
result-unit: µM
lt-gt-eq: =
assay-result: 0.05

molecule: CO[C@H]1/C=C/O[C@@]2(C)Oc3c(C)c(O)c4c(=O)c(c5oc6cc(N7CCN(CC(C)C)CC7)cc(OCc7ccc(CN8CCOCC8)cc7)c6nc-5c4c3C2=O)NC(=O)/C(C)=C\C=C\[C@H](C)[C@H](O)[C@@H](C)[C@@H](O)[C@@H](C)[C@H](OC(C)=O)[C@@H]1C [Compound 17e]
result-unit: µM
lt-gt-eq: =
assay-result: 0.0094

molecule: CO[C@H]1/C=C/O[C@@]2(C)Oc3c(C)c(O)c4c(=O)c(c5oc6cc(N7CCN(CC(C)C)CC7)cc(OCc7ccc(CN8CCNCC8)cc7)c6nc-5c4c3C2=O)NC(=O)/C(C)=C\C=C\[C@H](C)[C@H](O)[C@@H](C)[C@@H](O)[C@@H](C)[C@H](OC(C)=O)[C@@H]1C [Compound 17b]
result-unit: µM
lt-gt-eq: <
assay-result: 0.016

molecule: CO[C@H]1/C=C/O[C@@]2(C)Oc3c(C)c(O)c4c(=O)c(c5oc6cc(N7CCN(C)CC7)cc(OCCCCN7CCN(C(=O)Cn8ccnc8)CC7)c6nc-5c4c3C2=O)NC(=O)/C(C)=C\C=C\[C@H](C)[C@H](O)[C@@H](C)[C@@H](O)[C@@H](C)[C@H](OC(C)=O)[C@@H]1C [Compound 6c]
result-unit: µM
lt-gt-eq: =
assay-result: 0.021

molecule: CO[C@H]1/C=C/O[C@@]2(C)Oc3c(C)c(O)c4c(=O)c(c5oc6cccc(OCCCCN7CCOCC7)c6nc-5c4c3C2=O)NC(=O)/C(C)=C\C=C\[C@H](C)[C@H](O)[C@@H](C)[C@@H](O)[C@@H](C)[C@H](OC(C)=O)[C@@H]1C [Compound 5b]
result-unit: µM
lt-gt-eq: =
assay-result: 0.05

###

# Test system: non-replicating cultures of M. tuberculosis H37Rv transformed with lux ABCDE
# assay-protocol: microbe, parasite or virus in culture
# Format: cell-based, Mycobacterium tuberculosis
# setup-conditions: ratio of LORA MIC90 to MABA MIC90
Recorded MIC90 LORA/MABA values for a group of compounds are listed next.

compound: CO[C@H]1/C=C/O[C@@]2(C)Oc3c(C)c(O)c4c(=O)c(c5oc6cc(C)cc(N7CCN(CCn8ccnc8)CC7)c6nc-5c4c3C2=O)NC(=O)/C(C)=C\C=C\[C@H](C)[C@H](O)[C@@H](C)[C@@H](O)[C@@H](C)[C@H](OC(C)=O)[C@@H]1C [Compound 30e]
subject-of-test: non-replicating cultures of M. tuberculosis H37Rv transformed with lux ABCDE
MIC90 LORA/MABA: 2.1
--
compound: CO[C@H]1/C=C/O[C@@]2(C)Oc3c(C)c(O)c4c(=O)c(c5oc6cc(N7CCN(C(=O)c8cccc(-c9ccccn9)c8)CC7)cc(C)c6nc-5c4c3C2=O)NC(=O)/C(C)=C\C=C\[C@H](C)[C@H](O)[C@@H](C)[C@@H](O)[C@@H](C)[C@H](OC(C)=O)[C@@H]1C [Compound 29b]
subject-of-test: non-replicating cultures of M. tuberculosis H37Rv transformed with lux ABCDE
MIC90 LORA/MABA: 0.7
